- System: Caco-2
- assay remarks: Antiproliferative activity against human Caco-2 cells assessed as reduction in cell viability by MTT assay
- Assay type: functional, cell-based
measurement kind: pIC50
Answer as the number alone; pIC50 is minus log10 of concentration in mol/L.

| molecule | measurement kind | measured number |
| --- | --- | --- |
| CCOC(=O)C1=C(C)n2nc(Nc3ccccc3)c(C(N)=O)c2NC1c1ccc(F)cc1 (configuration not stated) | pIC50 | 4.53 |

Now let's try a different one.
# query: pIC50 | item CCOC(=O)C1=C(C)n2nc(Nc3ccccc3)c(C#N)c2NC1c1ccc(OC)cc1 (configuration not stated) | system: Caco-2 4.60

----------
- Test system: K562
- assay remarks: Antiproliferative activity against human K562 cells assessed as reduction in cell proliferation incubated for 3 days by calcein AM staining based fluorescent analysis
- Type: functional
- experimental conditions: K562, 72 h
measurement kind: IC50 (µM)
Write the answer as a number in µM, unit excluded.

Consider the worked cases shown below.
| smiles structure | units text | measured number |
| --- | --- | --- |
| CCCCCSc1nc(OC(=O)c2cc3ccccc3o2)c2cn[nH]c2n1 | µM | 19.8 |
| CCCCCSc1nc(OC(=O)CC(C)(C)C)c2cn[nH]c2n1 | µM | 19.8 |
| CCCCCSc1nc(Nc2ccccc2Cl)c2cn[nH]c2n1 | µM | 19.9 |
| CCCCCSc1nc(OC(=O)c2ccccc2)c2cn[nH]c2n1 | µM | 19.8 |
| O=[N+]([O-])c1cccc(Nc2nc(SCCc3ccccc3)nc3[nH]ncc23)c1 | µM | 19.9 |

# query: IC50 | item Clc1ccccc1Nc1nc(SCCc2ccccc2)nc2[nH]ncc12 | system: K562 19.9

# query: IC50 | item O=C(Oc1nc(SCCc2ccccc2)nc2[nH]ncc12)c1cc2ccccc2o1 | system: K562 19.8

# query: IC50 | item CCCCCSc1nc(Nc2ccc(SC)cc2)c2cn[nH]c2n1 | system: K562 19.9

# query: IC50 | item CCCCCSc1nc(OC(=O)c2ccco2)c2cn[nH]c2n1 | system: K562 19.8

----------
- target system: Cyclin-dependent kinase 2/cyclin E (Homo sapiens, UniProt P24941)
- assay remarks: Inhibition of CDK2/Cyclin E (unknown origin) expressed in baculovirus infected Sf9 cells using histone H1 as substrate in presence of gamma32P-ATP by scintillation counter analysis
measurement kind: IC50
Your reply should be a number followed by the unit it is expressed in.

Consider the worked cases shown below.
| smiles structure | target system | IC50 |
| --- | --- | --- |
| O=c1[nH]cc(-c2ccccc2F)c2nccn12 | Cyclin-dependent kinase 2/cyclin E (Homo sapiens, UniProt P24941) | 3200 nM |
| O=c1[nH]cc(-c2ccccc2Cl)c2nccn12 | Cyclin-dependent kinase 2/cyclin E (Homo sapiens, UniProt P24941) | 1500 nM |
| O=c1[nH]cc(-c2cccc(F)c2F)c2nccn12 | Cyclin-dependent kinase 2/cyclin E (Homo sapiens, UniProt P24941) | 4800 nM |

Which IC50 value is on record for O=c1[nH]cc(-c2ccc(O)cc2)c2nccn12 ? 1300 nM

----------
# log10 IC50 measurements, system: Cyclin-dependent kinase 2 (Homo sapiens, UniProt P24941)
// do not treat as linear: log10 of IC50, unit µM

Consider the worked cases shown below.
| molecule | target system | log10 IC50 |
| --- | --- | --- |
| O=C(CCCn1cc(CNC2CCCCC2)c(-c2ccccc2)n1)NO | Cyclin-dependent kinase 2 (Homo sapiens, UniProt P24941) | 0.67 |
| C[C@@H](CO)Nc1nc(N)c(N=O)c(OCC2CCCCC2)n1 | Cyclin-dependent kinase 2 (Homo sapiens, UniProt P24941) | -0.80 |
| O=C1CC(=O)N(c2ccc(F)cc2)C(=S)N1C(=O)c1ccccc1 | Cyclin-dependent kinase 2 (Homo sapiens, UniProt P24941) | 0.65 |
| O=C(c1ccccc1)N1C(=O)C(C2C(=O)N(C(=O)c3ccccc3)C(=S)N(c3ccc(F)cc3)C2=O)C(=O)N(c2ccc(F)cc2)C1=S (stereo unspecified) | Cyclin-dependent kinase 2 (Homo sapiens, UniProt P24941) | 0.72 |

# query: log10 IC50 | item O=C(CCCn1cc(CNC2CC2)c(-c2ccccc2)n1)NO | system: Cyclin-dependent kinase 2 (Homo sapiens, UniProt P24941) 0.57

# query: log10 IC50 | item C[C@@H](CO)Nc1nc(N)c(/[N+]([O-])=N/C#N)c(OCC2CCCCC2)n1 | system: Cyclin-dependent kinase 2 (Homo sapiens, UniProt P24941) -0.52
